Where these numbers come from: paper PMC3767324

Form field: zone of inhibition at 100 µg/mL (one value per entry).
System: Escherichia coli (NCIM 2574)
Assay: agar disc diffusion, zone of inhibition
Format: cell-based
Details: Escherichia coli, NCIM2574, 24 h
Your answer is read as mm, so omit the unit and give the number.

// worked examples, zone of inhibition at 100 µg/mL included
CC(=O)N(C(=O)c1ccc(O)cc1)c1ccc(N=Cc2cc3ccccc3o2)cc1 : 11
COc1ccc(C(=O)N(C(C)=O)c2ccc(N=Cc3cc4ccccc4o3)cc2)cc1 : 11
CC(=O)N(C(=O)c1ccccc1)c1ccc(N=Cc2cc3ccccc3o2)cc1 : 15
CC(=O)N(C(=O)c1cc(F)cc(F)c1)c1ccc(N=Cc2cc3ccccc3o2)cc1 : 11
CC(=O)N(C(=O)c1cc(F)ccc1F)c1ccc(N=Cc2cc3ccccc3o2)cc1 : 12

Now for another entry.
Consider the compound CC(=O)N(C(=O)c1cc(F)c(F)c(F)c1)c1ccc(N=Cc2cc3ccccc3o2)cc1 and give its measured zone of inhibition at 100 µg/mL.
12.7

---

System: Pseudomonas aeruginosa (NCIM 5029)
Assay: agar disc diffusion, zone of inhibition
Format: cell-based
Details: Pseudomonas aeruginosa, NCIM5029; P. aeruginosa; discs 6 mm, test compounds 100 µg/mL in DMSO, standards 10 µg/disc; 37°C 24 h; average of three replicates; read-out: zone of inhibition
zone of inhibition at 100 µg/mL values by entry
State the answer as a number, implicitly in mm.

// solved cases for zone of inhibition at 100 µg/mL follow
[H]/N=C(/N)N[C@H]1[C@H](O)[C@@H](O)[C@H](O[C@@H]2O[C@@H](C)[C@](O)(C=O)[C@H]2O[C@@H]2O[C@@H](CO)[C@H](O)[C@@H](O)[C@@H]2NC)[C@@H](N/C(N)=N\[H])[C@@H]1O [Streptomycin, streptomycin, reference compound] : 14
CC(=O)Nc1ccc(N=Cc2cc3ccccc3o2)cc1 [Compound 3] : 10

What zone of inhibition at 100 µg/mL value was documented for this compound, CC(=O)N(C(=O)c1ccccc1C)c1ccc(N=Cc2cc3ccccc3o2)cc1 [Compound 5f] ?
10

Param item = CC(=O)N(C(=O)c1ccc([N+](=O)[O-])cc1)c1ccc(N=Cc2cc3ccccc3o2)cc1 [Compound 5e] ; retrieve measured zone of inhibition at 100 µg/mL.
11

Name the reported zone of inhibition at 100 µg/mL value associated with the compound CC(=O)N(C(=O)Cc1ccccc1)c1ccc(N=Cc2cc3ccccc3o2)cc1 [Compound 5b]
11

---

Test system: Bacillus subtilis (NCIM 2999)
Test: agar disc diffusion, zone of inhibition
Assay type: cell-based
Conditions: Bacillus subtilis, NCIM2999, 24 h
zone of inhibition at 100 µg/mL listing for selected compounds.
Kindly provide the numeric value in mm only, without the unit symbol.

Under Bacillus subtilis (NCIM 2999): zone of inhibition at 100 µg/mL value of CC(=O)N(C(=O)c1ccc(O)cc1)c1ccc(N=Cc2cc3ccccc3o2)cc1 ?
9

API: value(readout=zone of inhibition at 100 µg/mL, system=Bacillus subtilis (NCIM 2999)) for record COc1ccc(C(=O)N(C(C)=O)c2ccc(N=Cc3cc4ccccc4o3)cc2)cc1
10

Request - read-out zone of inhibition at 100 µg/mL | tested on Bacillus subtilis (NCIM 2999) | compound CC(=O)N(C(=O)c1cc(F)cc(F)c1)c1ccc(N=Cc2cc3ccccc3o2)cc1
12

Lab note: need zone of inhibition at 100 µg/mL with Bacillus subtilis (NCIM 2999) for entry CC(=O)N(C(=O)c1cc(F)ccc1F)c1ccc(N=Cc2cc3ccccc3o2)cc1 , please look it up.
16

What zone of inhibition at 100 µg/mL appears in the records for this compound with Bacillus subtilis (NCIM 2999)? CC(=O)N(C(=O)c1ccccc1)c1ccc(N=Cc2cc3ccccc3o2)cc1
10

Find zone of inhibition at 100 µg/mL (Bacillus subtilis (NCIM 2999)) for the entry CC(=O)N(C(=O)c1cc(F)c(F)c(F)c1)c1ccc(N=Cc2cc3ccccc3o2)cc1
13.5

---

Biological target: bovine serum albumin (BSA) (Bos taurus)
Construct: Bovine serum albumin (BSA), one of the major components in plasma protein; purchased Sigma Aldrich Bangalore
Sequence (P02769 25-607): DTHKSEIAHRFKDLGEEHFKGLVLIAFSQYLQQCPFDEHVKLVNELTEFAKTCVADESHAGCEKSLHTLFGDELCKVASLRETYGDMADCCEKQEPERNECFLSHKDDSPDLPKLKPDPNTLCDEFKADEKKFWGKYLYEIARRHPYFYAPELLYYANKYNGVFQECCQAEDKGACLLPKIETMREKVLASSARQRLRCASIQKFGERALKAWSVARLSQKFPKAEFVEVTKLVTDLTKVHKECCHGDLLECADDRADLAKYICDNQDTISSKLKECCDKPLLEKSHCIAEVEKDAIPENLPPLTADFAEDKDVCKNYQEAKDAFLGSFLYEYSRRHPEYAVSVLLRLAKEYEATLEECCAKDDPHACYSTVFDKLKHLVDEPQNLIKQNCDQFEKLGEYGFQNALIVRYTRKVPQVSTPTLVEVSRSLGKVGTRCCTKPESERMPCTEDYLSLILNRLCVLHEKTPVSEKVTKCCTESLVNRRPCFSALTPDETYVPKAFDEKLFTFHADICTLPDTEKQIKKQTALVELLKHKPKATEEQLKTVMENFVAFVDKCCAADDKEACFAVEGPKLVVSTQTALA
Experiment: energy transfer from BSA to compound (Forster theory)
Format: binding
Quick list: r (binding distance between donor BSA and acceptor) per entry.
Expressed in nm, but write only the number.

The following molecules have reported results that may help.
CC(=O)N(C(=O)c1ccccc1)c1ccc(N=Cc2cc3ccccc3o2)cc1 : 4.11
CC(=O)N(C(=O)c1cc(F)c(F)c(F)c1)c1ccc(N=Cc2cc3ccccc3o2)cc1 : 3.07
CC(=O)N(C(=O)c1ccc(O)cc1)c1ccc(N=Cc2cc3ccccc3o2)cc1 : 4.09
CC(=O)N(C(=O)c1cc(F)ccc1F)c1ccc(N=Cc2cc3ccccc3o2)cc1 : 3.77
CC(=O)N(C(=O)c1cc(F)cc(F)c1)c1ccc(N=Cc2cc3ccccc3o2)cc1 : 2.93

What does the data say about its r (binding distance between donor BSA and acceptor)? Entry: COc1ccc(C(=O)N(C(C)=O)c2ccc(N=Cc3cc4ccccc4o3)cc2)cc1
3.17

---

Target: bovine serum albumin (BSA) (Bos taurus)
Construct: Bovine serum albumin (BSA), one of the major components in plasma protein; purchased Sigma Aldrich Bangalore
Experiment: fluorescence quenching of BSA, binding parameters
Conditions: 298 K; BSA 1.00 × 10^−5 mol L^−1; Tris-HCl pH 7.4
Readout type: K sv (Stern-Volmer quenching constant) (L/mol)
// return numeric value only (unit: L/mol, not printed)

Known K sv (Stern-Volmer quenching constant) results, listed for orientation:
CC(=O)N(C(=O)c1cc(F)c(F)c(F)c1)c1ccc(N=Cc2cc3ccccc3o2)cc1 : 79800
CC(=O)N(C(=O)c1cc(F)ccc1F)c1ccc(N=Cc2cc3ccccc3o2)cc1 : 99600
CC(=O)N(C(=O)c1ccccc1)c1ccc(N=Cc2cc3ccccc3o2)cc1 : 19300
COc1ccc(C(=O)N(C(C)=O)c2ccc(N=Cc3cc4ccccc4o3)cc2)cc1 : 74000
CC(=O)N(C(=O)c1cc(F)cc(F)c1)c1ccc(N=Cc2cc3ccccc3o2)cc1 : 21300

Now look at this entry.
Value lookup for K sv (Stern-Volmer quenching constant); key = CC(=O)N(C(=O)c1ccc(O)cc1)c1ccc(N=Cc2cc3ccccc3o2)cc1
23900
